Data credit: paper PMC7616174

Attribute: ΔpEC50 [1 μM]: change in ACh pEC50 in presence of M1 PAM compared to control curve
Target: hM1 mAChR (Homo sapiens)
Construct: expressed in transfected cells
Sequence (P11229 whole entry): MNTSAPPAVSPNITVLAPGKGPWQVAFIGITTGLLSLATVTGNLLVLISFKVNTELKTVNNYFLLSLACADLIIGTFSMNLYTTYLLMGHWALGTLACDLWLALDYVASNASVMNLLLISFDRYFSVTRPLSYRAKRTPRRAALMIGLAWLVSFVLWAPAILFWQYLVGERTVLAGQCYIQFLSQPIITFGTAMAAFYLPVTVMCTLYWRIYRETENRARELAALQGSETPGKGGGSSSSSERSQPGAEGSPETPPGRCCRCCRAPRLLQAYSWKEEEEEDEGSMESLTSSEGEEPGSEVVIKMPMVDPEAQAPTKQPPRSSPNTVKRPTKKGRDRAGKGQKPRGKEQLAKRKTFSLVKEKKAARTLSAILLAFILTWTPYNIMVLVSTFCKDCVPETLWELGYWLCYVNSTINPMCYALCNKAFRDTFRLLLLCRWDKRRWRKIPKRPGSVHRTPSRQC
Test: IP1 accumulation assay (ACh concentration-response curves in absence or presence of modulator)
Assay type: cell-based
Conditions: 1 μM modulator; FlpIn CHO hM1 cells; mean ± SEM, 3 experiments
metric: ΔpEC50 [1 μM]: change in ACh pEC50 in presence of M1 PAM compared to control curve

- compound: "Cn1cc(-c2ccc(COc3ccccc3-c3cc(=O)n(C4CCCCC4O)cn3)cc2)cn1 (stereo not shown)"
  numeric value: 1.52
- compound: "COC1CCCCC1n1ccc(-c2ccccc2OCc2ccc(-c3cnn(C)c3)cc2)cc1=O (stereo not shown)"
  numeric value: 0.03
- compound: "Cn1cc(-c2ccc(COc3cnccc3-c3ccn(C4CCCCC4O)c(=O)c3)cc2)cn1 (stereo not shown)"
  numeric value: 1.17
- compound: "Cn1cc(-c2ccc(COc3ncccc3-c3ccn(C4CCCCC4O)c(=O)c3)cc2)cn1 (stereo not shown)"
  numeric value: 0.76
- compound: "CN(C)C(=O)Cn1ccc(-c2ccccc2OCc2ccc(-c3cnn(C)c3)cc2)cc1=O [Compound 13c]"
  numeric value: 0.73
- compound: "COc1cccc(OCc2ccc(-c3cnn(C)c3)cc2)c1-c1cc(=O)n([C@H]2CCCC[C@@H]2O)cn1 (racemic) [Compound 26c]"
  numeric value: 0.02
- compound: "Cn1cc(-c2ccc(Cn3cccc(-c4ccn(C5CCCCC5O)c(=O)c4)c3=O)cc2)cn1 (stereo not shown)"
  numeric value: 0.12
